experiment: Cmax in Sprague-Dawley rat at 25 mg/kg, po; type: ADME, organism-based; design: route oral, dose 25 mg/kg; details: in vivo
Readout: Cmax (µM)
Please give a number only; it is taken to be in µM.

I'd like to know its Cmax. The compound in question is `COc1cc(C)[nH]c(=O)c1CNC(=O)c1c(C)n([C@H](C)C2CCN(CC(F)(F)F)CC2)c2ccccc12` 5.88

----------
Target: CYP1A2 (Homo sapiens, UniProt P05177)
Sequence (P05177 whole entry): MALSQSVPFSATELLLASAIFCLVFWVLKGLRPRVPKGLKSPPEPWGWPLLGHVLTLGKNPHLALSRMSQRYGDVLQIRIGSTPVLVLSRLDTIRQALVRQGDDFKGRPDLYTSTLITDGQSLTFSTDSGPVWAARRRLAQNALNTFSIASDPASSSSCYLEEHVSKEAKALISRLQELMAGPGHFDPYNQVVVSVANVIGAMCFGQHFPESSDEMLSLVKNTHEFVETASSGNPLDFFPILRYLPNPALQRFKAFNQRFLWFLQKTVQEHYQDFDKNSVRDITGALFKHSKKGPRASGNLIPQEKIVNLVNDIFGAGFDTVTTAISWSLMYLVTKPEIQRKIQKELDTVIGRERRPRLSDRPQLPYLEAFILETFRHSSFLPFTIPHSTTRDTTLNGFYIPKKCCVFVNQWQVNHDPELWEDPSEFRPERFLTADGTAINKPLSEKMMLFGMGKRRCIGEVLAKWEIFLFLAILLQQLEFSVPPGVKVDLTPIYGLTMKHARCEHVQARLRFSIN
Assay: Inhibition of CYP1A2 (unknown origin) at 10 uM relative to control
Assay type: ADME
Readout: inhibition at 10 µM (%)
Please give a number only; it is taken to be in %.

Smiles Record: COc1cc(C)[nH]c(=O)c1CNC(=O)c1c(C)n([C@H](C)C2CCN(CC(C)(F)F)CC2)c2ccccc12
inhibition at 10 µM [%]: 0
//
Smiles Record: COc1cc(C)[nH]c(=O)c1CNC(=O)c1c(C)n([C@H](C)C2CCN(CCC(F)(F)F)CC2)c2ccccc12
inhibition at 10 µM [%]: 19.4
//
Smiles Record: COc1cc(C)[nH]c(=O)c1CNC(=O)c1c(C)n([C@H](C)C2CCN(CC(F)(F)F)CC2)c2ccccc12
inhibition at 10 µM [%]: 15

Please find the next compound below.
I'd like to know its inhibition at 10 µM. The compound in question is `COc1cc(C)[nH]c(=O)c1CNC(=O)c1c(C)n([C@H](C)C2CCN(CC(F)F)CC2)c2ccccc12` 28.6
